Reference source for all entries: the METLIN SMRT retention time set (Domingo-Almenara et al. 2019)

- assay_comment: gradient 5% acetonitrile 3 min, to 50% in 2 min, to 85% in 15 min, held 3 min, 100 µL/min
- conditions: column: Zorbax Extend-C18 2.1 x 50 mm; eluents: water / acetonitrile, 0.1% formic acid
metric_name: RP-LC retention time (s)

Solved cases below.
>>> data_value("CN(C)c1cccc(C(=O)N2CCC3(C2)C(=O)N(C)c2ccccc23)c1 (centres undefined)")
710
>>> data_value("CCn1cnc(S(=O)(=O)N2CCCC(C(=O)Nc3ccc(F)cc3C)C2)c1 (centres undefined)")
726
>>> data_value("CCCC(NC(=O)CCc1ccccc1)C(=O)Nc1nc2ccccc2[nH]1 (centres undefined)")
718
>>> data_value("CN1CCC(Cc2ccc(C(=O)O)cc2)CC1")
569
>>> data_value("CC1(C(=O)NCc2ccccc2)CN(S(C)(=O)=O)CC(=O)N1Cc1ccccc1Cl (centres undefined)")
778

A = O=C(Cn1c(=O)n(-c2ccc(F)cc2)c2ncccc21)NCCN1CCCCCC1
B = CCCN1C(=O)CCc2cc(NS(=O)(=O)c3ccc(CC)cc3)ccc21
Which one would you say has the larger RP-LC retention time value: A , or B ? Write down the label attached to your selection. B

1 = CCn1ccc2sc(C)c(C(=O)N3CCN(c4ccccc4)CC3)c2c1=O
2 = CCN(C(=O)Nc1ccccc1[N+](=O)[O-])c1nc(-c2ccc(C)cc2)cs1
Which shows the larger RP-LC retention time value: 1 or 2 ? Respond with the label that goes with your answer. 2

* * *

- assay_comment: gradient 5% acetonitrile 3 min, to 50% in 2 min, to 85% in 15 min, held 3 min, 100 µL/min
- conditions: column: Zorbax Extend-C18 2.1 x 50 mm; eluents: water / acetonitrile, 0.1% formic acid
metric_name: RP-LC retention time (s)

Use the examples below as a reference point.
>>> data_value("O=c1c2nnc(SCc3ccccc3)n2ccn1-c1ccc(Br)cc1")
812
>>> data_value("COc1ccc(-c2noc(CC(=O)NCc3ccccc3)c2-c2ccc(OC)cc2)cc1")
924
>>> data_value("CCn1cc(C(=O)NCc2ccccn2)c(S(=O)(=O)N2CCSCC2)n1")
647
>>> data_value("CC1CCN(c2cc(-n3cnc(C(=O)N4CCc5ccccc54)c3)ncn2)CC1")
1140

a = O=C(Nc1ccccc1-c1nc2ccccc2s1)c1c(F)cccc1F
b = Nn1nnc2ccccc21
Out of a and b , name the one with the higher RP-LC retention time. Indicate your choice by writing its label. a

a = COc1cccc(-c2nnc(Cc3nc(-c4cccc(C)c4)no3)o2)c1
b = O=C(Cc1ccc(F)cc1)Nc1cc(-c2cccnc2)no1
Which of the two gives a bigger number for RP-LC retention time: a or b ? Please identify the chosen entry by its label. a

I = Cc1ccccc1-c1nc(Cn2c(C)nc3onc(C)c3c2=O)c(C)o1
II = COc1cc2nc(C(=O)N3CCCCC3)cc(Nc3cc(C)cc(C)c3)c2cc1OC
Dear colleague, could you let me know whether I or II has the lower recorded RP-LC retention time? Thanks. # respond with the chosen item's label II

P = Cc1nn2c(CNS(=O)(=O)c3ccc(F)c(Cl)c3)c(-c3ccccc3)nc2s1
Q = O=C(CC1CCCN(c2cnn(CC3CC3)c(=O)c2)C1)NC1CC1 (stereo not given)
Which value of RP-LC retention time is numerically greater: that of P or that of Q ? Label of pick, please. P
(P: 942 s, Q: 651 s)
